tested on: OVCAR-8; test: NCI60 five-dose screen; format: cell-based; details: Homo sapiens, OVCAR-8
Hi! Could you tag entries with GI50 below 2 µM as Satisfied, and those at or above as Not satisfied? Much appreciated.

| compound | answer.label |
| --- | --- |
| CC[C@]12C=CCN3CC[C@@]4(c5ccc(OC)cc5N(C)[C@H]4[C@@](O)(C(=O)OC)[C@@H]1OC(=O)CCC[P+](c1ccccc1)(c1ccccc1)c1ccccc1OC)[C@@H]32 | Satisfied |

Prompt line: Strictly below 2 µM: is that where GI50 of CC[C@]12C=CCN3CC[C@@]4(c5ccc(OC)cc5N(C)[C@H]4[C@@](O)(C(=O)OC)[C@@H]1OC(=O)CCCC[P+](c1ccc(C)cc1)(c1ccc(C)cc1)c1ccc(C)cc1)[C@@H]32 [10a] sits?
Response line: Satisfied

Prompt line: Regarding CC[C@]12C=CCN3CC[C@@]4(c5ccc(OC)cc5N(C)[C@H]4[C@@](O)(C(=O)OC)[C@@H]1OC(=O)CCC[P+](c1ccc(F)cc1)(c1ccc(F)cc1)c1ccc(F)cc1)[C@@H]32 , kindly confirm whether its GI50 is beneath 2 µM.
Response line: Not satisfied

Prompt line: Determine if CC[C@]12C=CCN3CC[C@@]4(c5ccc(OC)cc5N(C)[C@H]4[C@@](O)(C(=O)OC)[C@@H]1OC(=O)CCCC[P+](c1ccccc1)(c1ccccc1)c1ccccc1)[C@@H]32 [compound 4, reference compound] shows GI50 strictly lower than 2 µM.
Response line: Satisfied

* * *

system: HCT-116; assay: NCI60 one-dose screen; type: cell-based; conditions: Homo sapiens; HCT-116, 10 μM, one-dose; read-out: Growth percent
measured.metric: activity at 10 µM
Param answer (str): number followed by unit.

Recorded activity at 10 µM, per entry:
| molecule | activity at 10 µM |
| --- | --- |
| CCC12C=CCN3CCC4(c5ccc(OC)cc5N(C)C4C(O)(C(=O)OC)C1OC(=O)c1ccc(C[P+](c4ccccc4)(c4ccccc4)c4ccccc4)cc1)C32 (centres unmarked) [compound 12] | -62.8% |
| CC[C@]12C=CCN3CC[C@@]4(c5ccc(OC)cc5N(C)[C@H]4[C@@](O)(C(=O)OC)[C@@H]1OC(=O)CCC[P+](c1ccc(OC)cc1)(c1ccc(OC)cc1)c1ccc(OC)cc1)[C@@H]32 [9b] | -68.8% |
| CC[C@]12C=CCN3CC[C@@]4(c5ccc(OC)cc5N(C)[C@H]4[C@@](O)(C(=O)OC)[C@@H]1OC(=O)CCC[P+](c1cc(C)c(OC)c(C)c1)(c1cc(C)c(OC)c(C)c1)c1cc(C)c(OC)c(C)c1)[C@@H]32 [9e] | -93% |
| CC[C@]12C=CCN3CC[C@@]4(c5ccc(OC)cc5N(C)[C@H]4[C@@](O)(C(=O)OC)[C@@H]1OC(=O)CCC[P+](c1ccccc1)(c1ccccc1)c1ccccc1)[C@@H]32 [compound 3, reference compound] | 8.72% |

Prompt line: Quick one: give measured activity at 10 µM for CC[C@]12C=CCN3CC[C@@]4(c5ccc(OC)cc5N(C)[C@H]4[C@@](O)(C(=O)OC)[C@@H]1OC(=O)CCCC[P+](c1ccc(F)cc1)(c1ccc(F)cc1)c1ccc(F)cc1)[C@@H]32 [10c]
Response line: 23.4%
